Biological target: T1, Recombinant Human 5′-Nucleotidase/CD73 Protein, CF (R&D Systems Cat: 5795-EN) (human, UniProt P21589 27-547)
T1 construct: Bought protein; also called Human CD73-His; recombinant human CD73; not shown: His tag
T1 sequence (looked up): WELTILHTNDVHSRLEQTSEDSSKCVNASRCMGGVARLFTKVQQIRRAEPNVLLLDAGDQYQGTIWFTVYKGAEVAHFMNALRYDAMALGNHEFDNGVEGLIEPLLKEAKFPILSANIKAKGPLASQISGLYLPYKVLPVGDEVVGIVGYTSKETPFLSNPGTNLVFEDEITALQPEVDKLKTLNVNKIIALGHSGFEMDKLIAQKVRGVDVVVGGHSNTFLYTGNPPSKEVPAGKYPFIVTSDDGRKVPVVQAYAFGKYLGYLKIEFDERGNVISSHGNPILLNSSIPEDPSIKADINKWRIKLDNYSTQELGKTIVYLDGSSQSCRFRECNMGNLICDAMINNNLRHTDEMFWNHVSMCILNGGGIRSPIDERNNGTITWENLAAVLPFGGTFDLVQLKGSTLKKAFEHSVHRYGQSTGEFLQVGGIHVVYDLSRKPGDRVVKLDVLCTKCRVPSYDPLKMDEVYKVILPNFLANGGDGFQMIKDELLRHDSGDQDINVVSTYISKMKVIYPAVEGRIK
Assay: ForteBio Octet RED384 (BLI), whole IgG on AHQ sensors, 100 nM antigen, 1:1 model
Procedure: Briefly, ForteBio affinity measurements were performed by loading IgGs on-line onto AHQ sensors. Sensors were equilibrated off-line in assay buffer for 30 min and then monitored on-line for 60 seconds for baseline establishment. Sensors with loaded IgGs were exposed to 100 nM antigen for 3 minutes, and afterwards were transferred to assay buffer for 3 min for off-rate measurement. All kinetics were analyzed using the 1:1 binding model. Antigens used were: [0438] […]
readout.label: Kd
Please state the value followed by its unit.

Find the recorded Kd belonging to 376.C (antibody, V domains shown, also called 376 IgG1 format) VH: EVQLLESGGGLVQPGGSLRLSCAASGFTFRSYAMSWVRQAPGKGLEWVSAITGSGGLTYYADSVKGRFTISRDNSKNTLYLQMNSLRAEDTAVYYCARGGLYGSGSYLSDFDLWGRGTLVTVSS VL: EIVLTQSPATLSVSPGERATLSCRASQSVGSNLAWYQQKPGQAPRLLIYGASTRATGIPARFSGSGSGTEFTLTISSLQSEDFAVYYCQQHNAFPYTFGGGTKVEIK and report it. 0.301 nM

And what about the binder 373.C (antibody, V domains shown) VH: EVQLLESGGGLVQPGGSLRLSCAASGFTFHRYAMSWVRQAPGKGLEWVSAISGSGMNTYYADSVKGRFTISRDNSKNTLYLQMNSLRAEDTAVYYCARGGLYGSGSYLSDFDLWGRGTLVTVSS VL: EIVLTQSPATLSVSPGERATLSCRASQSVGSNLAWYQQKPGQAPRLLIYGASTRATGIPARFSGSGSGTEFTLTISSLQSEDFAVYYCQQHNAFPYTFGGGTKVEIK ? 0.621 nM

918.C (antibody, V domains shown) VH: QVQLQESGPGLVKPSETLSLTCTVSGGSISSYYWSWIRQPPGKGLEWIGYIYSSGSTNYNPSLKSRVTISVDTSKNQFSLKLSSVTAADTAVYYCARESQESPYNNWFDPWGQGTLVTVSS VL: DIQMTQSPSSVSASVGDRVTITCRASQGISSWLAWYQQKPGKAPKLLIYAASSLQSGVPSRFSGSGSGTDFTLTISSLQPEDFATYYCQQGNSFPRTFGGGTKVEIK , same question. 1.53 nM

Now try 374.C (antibody, V domains shown) VH: EVQLLESGGGLVQPGGSLRLSCAASGFTFSYNAMSWVRQAPGKGLEWVSSISGTGGSTYYADSVKGRFTISRDNSKNTLYLQMNSLRAEDTAVYYCARGGLYGSGSYLSDFDLWGRGTLVTVSS VL: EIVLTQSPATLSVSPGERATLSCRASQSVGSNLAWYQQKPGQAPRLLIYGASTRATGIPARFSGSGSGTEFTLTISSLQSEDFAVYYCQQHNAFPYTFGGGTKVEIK . 0.358 nM
